In this section we review reported IC50 values for a set of molecules.
system: T47D; assay: Cell viability (CellTiter-Fluor), T47D; type: cell-based; details: Homo sapiens, 24-72 hrs

See these solved cases before continuing.
COc1ccc(C[C@H]2NC[C@H](O)[C@H]2OC(=O)NCc2c[nH]nn2)cc1 | 1000 to 4000 nM
COc1ccc(C[C@H]2NC[C@H](O)[C@H]2OC(=O)NCc2ccccc2)cc1 | < 250 nM
COc1ccc(C[C@H]2NC[C@H](O)[C@H]2OC(=O)NCc2ccncc2)cc1 | < 250 nM

input: Provide the documented IC50 with T47D as the system for COc1ccc(C[C@H]2NC[C@H](O)[C@H]2OC(=O)NCCc2cn[nH]c2)cc1
output: 250 to 1000 nM

input: Provide the documented IC50 with T47D as the system for COc1ccc(C[C@H]2NC[C@H](O)[C@H]2OC(=O)NCC2CC2)cc1
output: 250 to 1000 nM

* * *

tested on: CCND1; test: In vitro transcription-translation (IVTT) assay, CCND1 reporter; format: biochemical; conditions: HeLa S3 lysate, sfGFP/mCherry ratio, 2 hrs at 30° C.
pIC50: −log10 of the molar value.
RECORDED_METRIC: pIC50

See these solved cases before continuing.
COc1ccc(C[C@H]2NC[C@H](O)[C@H]2OC(=O)NCCc2cnc(N)[nH]2)cc1 | > 5.00
COc1ccc(C[C@H]2NC[C@H](O)[C@H]2OC(=O)NCc2ccccc2)cc1 | > 5.00
COc1ccc(C[C@H]2NC[C@H](O)[C@H]2OC(=O)NCCNC(=O)C2(N)CC2)cc1 | < 4.52
COc1ccc(C[C@H]2NC[C@H](O)[C@H]2OC(=O)NCCc2cc[nH]n2)cc1 | > 5.00

input: Could you tell me which pIC50 is on file for COc1ccc(C[C@H]2NC[C@H](O)[C@H]2OC(=O)NC[C@H]2CCNC2)cc1 ?
output: 4.70 to 5.00

input: Could you tell me which pIC50 is on file for COc1ccc(C[C@H]2NC[C@H](O)[C@H]2OC(=O)NCCc2nc3ccc(Cl)cc3[nH]2)cc1 ?
output: < 4.52

input: Could you tell me which pIC50 is on file for COc1ccc(C[C@H]2NC[C@H](O)[C@H]2OC(=O)NCCNc2nc(N)nc3nc[nH]c23)cc1 ?
output: < 4.52

input: Could you tell me which pIC50 is on file for COc1ccc(C[C@H]2NC[C@H](O)[C@H]2OC(=O)NCCc2nc3ccccc3[nH]2)cc1 ?
output: 4.52 to 4.70

input: Could you tell me which pIC50 is on file for COc1ccc(C[C@H]2NC[C@H](O)[C@H]2OC(=O)NCCCO)cc1 ?
output: > 5.00

* * *

test system: KLE; experiment: Cell viability (CellTiter-Fluor), KLE; assay type: cell-based; conditions: Homo sapiens, 24-72 hrs
RECORDED_METRIC: IC50

See these solved cases before continuing.
COc1ccc(C[C@H]2NC[C@H](O)[C@H]2OC(=O)NCC[C@@H]2CCNC2)cc1 | ≥ 4000 nM
COc1ccc(C[C@H]2NC[C@H](O)[C@H]2OC(=O)NCC2CC2)cc1 | 250 to 1000 nM
COc1ccc(C[C@H]2NC[C@H](O)[C@H]2OC(=O)NCc2ccnnc2)cc1 | 250 to 1000 nM

Below: the item to evaluate.
input: Provide the documented IC50 with KLE as the system for COc1ccc(C[C@H]2NC[C@H](O)[C@H]2OC(=O)NCc2cc[nH]c(=O)c2)cc1
output: 1000 to 4000 nM
